// reported zone of inhibition at 100 µg/mL per item
System: B. subtilis (ATCC 6051)
test.details: Antibacterial zone of inhibition
Format: cell-based, Bacillus subtilis
protocol.conditions: Bacillus subtilis, ATCC6051, read-out: Zone of inhibition in mm, B. subtilis (ATCC 6051), Gram positive; 100 μg mL^−1
recorded.metric: zone of inhibition at 100 µg/mL (mm)

{"compound": "CCOC(=O)c1sc(N/N=C/c2c(-c3ccc(Br)cc3)nc3ncccn23)nc1C [Compound K5]", "recorded.metric": "zone of inhibition at 100 µg/mL", "observed.value": 13}
{"compound": "CC(=O)c1sc(N/N=C/c2c(-c3ccccc3)nc3ncccn23)nc1C [Compound K21]", "recorded.metric": "zone of inhibition at 100 µg/mL", "observed.value": 13}
{"compound": "CC(=O)c1sc(N/N=C/c2c(-c3ccc(C)cc3)nc3ncccn23)nc1C [Compound K15]", "recorded.metric": "zone of inhibition at 100 µg/mL", "observed.value": 13}
{"compound": "CCOC(=O)c1sc(N/N=C/c2c(-c3ccc(F)cc3)nc3ncccn23)nc1C [Compound K3]", "recorded.metric": "zone of inhibition at 100 µg/mL", "observed.value": 13}
{"compound": "CCOC(=O)/C=C1/SC(N/N=C/c2c(-c3ccc(Br)cc3)nc3ncccn23)=NC1=O [Compound K26]", "recorded.metric": "zone of inhibition at 100 µg/mL", "observed.value": 15}
{"compound": "CC(=O)c1sc(N/N=C/c2c(-c3ccc(Br)cc3)nc3ncccn23)nc1C [Compound K19]", "recorded.metric": "zone of inhibition at 100 µg/mL", "observed.value": 12}

###

Tested on: M. tuberculosis H37Rv strain (ATCC 27294)
test.details: Antitubercular activity, microplate Alamar Blue assay
Type: cell-based
protocol.conditions: Mycobacterium tuberculosis, ATCC27294|H37RV, read-out: MIC μM

{"compound": "CC(=O)c1sc(N/N=C/c2c(-c3ccc(C#N)cc3)nc3ncccn23)nc1C [Compound K20]", "MIC / µM": 15.6}
{"compound": "CC(=O)c1sc(N/N=C/c2c(-c3ccc(Cl)cc3)nc3ncccn23)nc1C [Compound K18]", "MIC / µM": 30.5}
{"compound": "CC(=O)c1sc(N/N=C/c2c(-c3ccc(Br)cc3)nc3ncccn23)nc1C [Compound K19]", "MIC / µM": 13.8}
{"compound": "CCOC(=O)c1sc(N/N=C/c2c(-c3ccc(OC)cc3)nc3ncccn23)nc1C [Compound K2]", "MIC / µM": 3.66}

###

System: M. tuberculosis H37Rv strain (ATCC 27294)
test.details: Antitubercular activity, microplate Alamar Blue assay
Type: cell-based
protocol.conditions: Mycobacterium tuberculosis, ATCC27294|H37RV, read-out: MIC μM
recorded.metric: log10 of MIC (log10 of the value in µM)

{"compound": "CCOC(=O)/C=C1/SC(N/N=C/c2c(-c3ccc(Br)cc3)nc3ncccn23)=NC1=O", "observed.value": 1.70}
{"compound": "CCOC(=O)/C=C1/SC(N/N=C/c2c(-c3ccc(F)cc3)nc3ncccn23)=NC1=O", "observed.value": 1.45}
{"compound": "CCOC(=O)c1sc(N/N=C/c2c(-c3ccc(C#N)cc3)nc3ncccn23)nc1C", "observed.value": 1.46}
{"compound": "CCOC(=O)c1sc(N/N=C/c2c(-c3ccc(Br)cc3)nc3ncccn23)nc1C", "observed.value": 1.11}
{"compound": "CCOC(=O)/C=C1/SC(N/N=C/c2c(-c3ccc(Cl)cc3)nc3ncccn23)=NC1=O", "observed.value": 1.74}
{"compound": "[H]/N=C(/N)N[C@H]1[C@H](O)[C@@H](O)[C@H](O[C@@H]2O[C@@H](C)[C@](O)(C=O)[C@H]2O[C@@H]2O[C@@H](CO)[C@H](O)[C@@H](O)[C@@H]2NC)[C@@H](N/C(N)=N\\[H])[C@@H]1O [STM, streptomycin, reference compound]", "observed.value": 1.03}
{"compound": "COc1ccc(-c2nc3ncccn3c2/C=N/Nc2nc(C)c(C(C)=O)s2)cc1", "observed.value": 1.49}
{"compound": "CCOC(=O)/C=C1/SC(N/N=C/c2c(-c3ccc(OC)cc3)nc3ncccn23)=NC1=O", "observed.value": 2.05}
{"compound": "CC(=O)c1sc(N/N=C/c2c(-c3ccccc3)nc3ncccn23)nc1C", "observed.value": 1.52}
{"compound": "CC(=O)c1sc(N/N=C/c2c(-c3ccc(C)cc3)nc3ncccn23)nc1C", "observed.value": 1.51}
{"compound": "CC(=O)c1sc(N/N=C/c2c(-c3ccc(F)cc3)nc3ncccn23)nc1C", "observed.value": 0.90}
{"compound": "CCOC(=O)c1cnc(N/N=C/c2c(-c3ccc(C)cc3)nc3ncccn23)s1", "observed.value": 0.89}
{"compound": "CCOC(=O)c1cnc(N/N=C/c2c(-c3ccccc3)nc3ncccn23)s1", "observed.value": 1.50}
{"compound": "CCOC(=O)c1sc(N/N=C/c2c(-c3ccc(Cl)cc3)nc3ncccn23)nc1C", "observed.value": 1.15}
{"compound": "CCOC(=O)c1sc(N/N=C/c2c(-c3ccc(F)cc3)nc3ncccn23)nc1C", "observed.value": 0.58}
{"compound": "NC(=O)c1cnccn1 [PZA, pyrazinamide, reference compound]", "observed.value": 1.40}
{"compound": "CCOC(=O)/C=C1/SC(N/N=C/c2c(-c3ccc(C)cc3)nc3ncccn23)=NC1=O", "observed.value": 1.46}

Origin of measurements: paper PMC12415690
